Measured values drawn from PubChem BioAssay (NCI) for this set.

tested on: MALME-3M melanoma; test: NCI tumour cell line growth inhibition, 48 h
recorded_metric: TGI

Previously resolved entries follow.
- O=C(N/N=C\c1cc(Cl)ccc1O)c1ccncc1: > 100 µM
- C[C@H](NS(=O)(=O)c1ccc(NC(=O)c2ccccc2)cc1)C(=O)O: > 100 µM

Turning now to a further molecule:
[in] Could you tell me which TGI is on file for `CCOC(=O)c1cnc2oc(-c3ccc(OC)cc3)nn2c1=O` ?
[out] > 100 µM

---

Below: a set of entries, each annotated with reported GI50.
tested on: OVCAR-3 ovarian; assay: NCI tumour cell line growth inhibition, 48 h

Some entries whose results are on file:
* CCC(=O)Oc1cc(/C=C/C(=O)O[C@H]2C[C@H]3CN4CCc5c([nH]c6cc(OC)ccc56)[C@@H]4C[C@@H]3[C@@H](C(=O)OC)[C@@H]2OC)ccc1OC | 7.3 µM
* COc1ccc(NC(=O)c2sc3nc(C)c(C(=O)/C=C/c4ccccc4)cc3c2N)cc1 | 1.09 µM

With those in mind, consider the next compound.
[in] Missing value: GI50, OVCAR-3 ovarian, entry `CO/N=C(\COc1ccc2c(=O)cc(-c3ccccc3)oc2c1)c1ccc(F)cc1` . Fill in?
[out] 14 µM
